Where do the numbers come from? From patent US8796280B2.

Target: CRTH2 (Homo sapiens (Human), UniProt Q9Y5Y4)
Sequence (Q9Y5Y4 whole entry): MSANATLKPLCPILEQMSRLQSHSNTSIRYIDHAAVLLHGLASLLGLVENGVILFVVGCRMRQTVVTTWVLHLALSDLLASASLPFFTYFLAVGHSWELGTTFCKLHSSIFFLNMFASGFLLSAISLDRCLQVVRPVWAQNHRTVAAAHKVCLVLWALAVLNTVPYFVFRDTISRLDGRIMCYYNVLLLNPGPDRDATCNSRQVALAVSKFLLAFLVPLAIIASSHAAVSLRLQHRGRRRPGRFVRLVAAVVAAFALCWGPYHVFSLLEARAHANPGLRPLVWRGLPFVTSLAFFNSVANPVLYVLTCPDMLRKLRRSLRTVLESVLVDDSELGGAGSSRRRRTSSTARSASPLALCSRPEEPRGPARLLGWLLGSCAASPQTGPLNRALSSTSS
Test: Radioligand binding assay ([3H]PGD2 displacement, hCRTH2 HEK293 (EBNA) cell membranes)
Conditions: 1.5 nM [3H]PGD2, 10 μg hCRTH2 HEK293 (EBNA) membrane protein, 60 min room temperature; test concentration not given
Method: Human CRTH2 cDNA was amplified by PCR using a human urinary bladder cDNA library as a template and specific primers containing HindIII and BamHI restriction sites for cloning into the pCEP4 vector (Invitrogen). […] The inhibitory activity can be investigated by a radioligand binding assay (Sawyer et al., Br. J. Pharmocol 2002, 137, 1163-72). […] Non-specific binding was determined in the presence of 1 μM PGD2 (Cayman, USA). […]
Label key: Y means Inhibition hCRTH2 [%] under 80%; N means Inhibition hCRTH2 [%] of 80% or more.

# SMILES ENTRY, ASSIGNED CLASS
measured = [
    ("CCc1nc2ccccc2n1Cc1ccc(-c2nccnc2NS(=O)(=O)c2ccccc2C(F)(F)F)cc1", "N"),
    ("O=S(=O)(Nc1nccnc1-c1ccc(Cn2ccc3ccccc32)cc1)c1ccccc1C(F)(F)F", "N"),
    ("CN(Cc1ccc(-c2nccnc2NS(=O)(=O)c2ccc(C#N)cc2)cc1)c1ccc(OC(F)(F)F)cc1", "Y"),
    ("CN(Cc1ccc(-c2nccnc2NS(=O)(=O)c2ccc(Cl)cc2)cc1)c1ccccc1", "Y"),
    ("CN(Cc1ccc(-c2nccnc2NS(=O)(=O)c2cccs2)cc1)c1ccc(Cl)cc1", "Y"),
    ("CN(Cc1ccc(-c2nccnc2NS(=O)(=O)c2cccc(Cl)c2)cc1)c1ccc(OC(F)(F)F)cc1", "Y"),
    ("O=S(=O)(Nc1nccnc1N1CCN(Cc2ccc3ccccc3n2)CC1)c1ccc(Oc2ccccc2)cc1", "Y"),
    ("Cc1ccc(S(=O)(=O)Nc2nccnc2-c2ccc(CN(C)c3ccc(OC(F)(F)F)cc3)cc2)cc1", "Y"),
    ("CN(Cc1ccc(-c2nccnc2NS(=O)(=O)c2ccccc2Cl)cc1)c1ccc(OC(F)(F)F)cc1", "N"),
    ("CN(Cc1ccc(-c2nccnc2NS(=O)(=O)c2ccccc2Cl)cc1)c1ccccc1", "N"),
    ("COc1cccc(COCc2ccc(-c3nccnc3NS(=O)(=O)c3ccccc3C(F)(F)F)cc2)c1", "Y"),
    ("O=S(=O)(Nc1nccnc1-c1ccc(CNc2ccc3c(c2)OCO3)cc1)c1ccccc1C(F)(F)F", "Y"),
]

###

target: CRTH2 (Homo sapiens (Human), UniProt Q9Y5Y4); assay: Determination of Ki, equilibrium competition binding against [3H]PGD2; details: competition against [3H]PGD2; average of at least three independent dose response experiments; Ki calculated from IC50
pKi: −log10 of the molar value.
Decision: pKi >= 6 yields fulfilled, all other cases yield not fulfilled.

# SMILES ENTRY, TESTED ON, ASSIGNED CLASS
data = [
    ("CN(Cc1ccc(-c2nccnc2NS(=O)(=O)c2ccc(C#N)cc2)cc1)c1ccc(OC(F)(F)F)cc1", "CRTH2 (Homo sapiens (Human), UniProt Q9Y5Y4)", "not fulfilled"),
    ("CN(Cc1ccc(-c2nccnc2NS(=O)(=O)c2ccccc2Cl)cc1)c1ccccc1", "CRTH2 (Homo sapiens (Human), UniProt Q9Y5Y4)", "not fulfilled"),
    ("CN(Cc1ccc(-c2nccnc2NS(=O)(=O)c2ccc(Cl)cc2)cc1)c1ccccc1", "CRTH2 (Homo sapiens (Human), UniProt Q9Y5Y4)", "not fulfilled"),
    ("CCc1nc2ccccc2n1Cc1ccc(-c2nccnc2NS(=O)(=O)c2ccccc2C(F)(F)F)cc1", "CRTH2 (Homo sapiens (Human), UniProt Q9Y5Y4)", "fulfilled"),
    ("O=S(=O)(Nc1nccnc1-c1ccc(CNc2ccc3c(c2)OCO3)cc1)c1ccccc1C(F)(F)F", "CRTH2 (Homo sapiens (Human), UniProt Q9Y5Y4)", "not fulfilled"),
]
